These data points were gathered from patent US20170143701A1.

- Tested on: C57/BL6J mice
- assay.explanation: In vivo plasma GLP-1 level-increasing action: plasma active GLP-1 level (ELISA) after oral administration
- condition.context: Table 10, Experiment 5; 10 mg/kg oral, blood 30 minutes after; 0.5% CMC-Na group = 100
- Description: Seven-week-old male C57/BL6J mice were purchased from CLEA Japan, Inc. for use, and they were subjected to an experiment after 1 week of a habituation period. After the habituation period, the mice were subjected to 5.5 hours of food deprivation and 2 hours of water deprivation. Thereafter, a cyclic dipeptide dissolved or suspended in a 0.5% CMC-Na aqueous solution in 10 mg/kg was orally administered to each mouse forcibly. […]
measurement.type: Plasma active GLP-1 level (relative value to control group as 100), average value
Answers are plain numbers.

// each compound listed below needs its Plasma active GLP-1 level (relative value to control group as 100), average value
1. O=C1CNC(=O)C(Cc2ccc(O)cc2)N1 (stereo not drawn)
2. CC1NC(=O)C(Cc2ccccc2)NC1=O (stereo not drawn)
3. NC(=O)CC1NC(=O)C(Cc2ccccc2)NC1=O (stereo not drawn)
4. O=C1N[C@@H](Cc2ccc(O)cc2)C(=O)N[C@H]1Cc1ccc(O)cc1

[97, 93, 93, 100]

---

- System: NCI-H716 cells
- assay.explanation: In vitro GLP-1 secretion-accelerating action: amount of active GLP-1 secreted (ELISA)
- Assay type: cell-based
- condition.context: Table 3, Experiment 3; 10 mM, 1 hour; Student's t-test
measurement.type: Significant difference (p < 0.05) vs control group, amount of active GLP-1 secreted

Here's what some known entries look like.
> print(dat)
                                   compound   system.tested  meas.value
1    NCCCC[C@@H]1NC(=O)[C@H](CCC(=O)O)NC1=O  NCI-H716 cells          No
2    NCCCC[C@@H]1NC(=O)[C@H](CCC(N)=O)NC1=O  NCI-H716 cells          No
3        CC1NC(=O)CNC1=O (stereo not drawn)  NCI-H716 cells          No
4  NC(=O)CC[C@@H]1NC(=O)[C@H](CCC(=O)O)NC1=O  NCI-H716 cells          No
5  NC(=O)C[C@@H]1NC(=O)[C@H](CCC(=O)O)NC1=O  NCI-H716 cells          No

Below are some compounds; for each one, tell me its Significant difference (p < 0.05) vs control group, amount of active GLP-1 secreted.
1. NC(=O)C[C@@H]1NC(=O)[C@H](Cc2cnc[nH]2)NC1=O
2. NC(=O)CC[C@@H]1NC(=O)[C@H](CO)NC1=O
3. CC(O)C1NC(=O)C(C(C)O)NC1=O (stereo not drawn)
4. CC(O)C1NC(=O)C(CCCCN)NC1=O (stereo not drawn)

1. Yes
2. No
3. Yes
4. No

---

What Amount of active GLP-1 secreted (relative value to control group as 100), average value was measured for each of the following?
- Tested on: NCI-H716 cells
- assay.explanation: In vitro GLP-1 secretion-accelerating action: amount of active GLP-1 secreted (ELISA)
- Format: cell-based
- condition.context: Table 4, Experiment 4; cyclic dipeptide 10 mM with 10 μM Sitagliptin phosphate, 1 hour; group with no cyclic dipeptide = 100
Numbers only.

// below: answered molecules
> print(dat)
                                   molecule   system.tested  meas.value
1  NC(=O)CC1NC(=O)C(CC(N)=O)NC1=O (stereo not drawn) [compound 173, Cyclo(Asn-Asn)]  NCI-H716 cells         255
2  CC(C)[C@@H]1NC(=O)[C@H](CCCN=C(N)N)NC1=O [compound 194, cyclo-arginyl-valine]  NCI-H716 cells         498
3  NC(=O)CCC1NC(=O)C2CCCN2C1=O (stereo not drawn) [compound 188, Cyclo(Gln-Pro)]  NCI-H716 cells         132
4  C[C@@H]1NC(=O)[C@@H]2CCCN2C1=O [compound 187, cyclo-L-alanyl-proline]  NCI-H716 cells        1186
5  O=C(O)C[C@@H]1NC(=O)[C@H](CO)NC1=O [compound 193, cyclo-aspartyl-serine]  NCI-H716 cells         509

# return Amount of active GLP-1 secreted (relative value to control group as 100), average value for each item in the list
1. NC(=O)CC[C@@H]1NC(=O)[C@H](Cc2cnc[nH]2)NC1=O [compound 191, cyclo-glutaminyl-histidine]
2. CC[C@H](C)[C@@H]1NC(=O)[C@H](CCC(N)=O)NC1=O [compound 182, cyclo-glutaminyl-isoleucine]
3. N=C(N)NCCC[C@@H]1NC(=O)[C@H](CC(N)=O)NC1=O [compound 197, cyclo-asparaginyl-arginine]
4. NC(=O)CCC1NC(=O)C(CCC(N)=O)NC1=O (stereo not drawn) [compound 176, Cyclo(Gln-Gln)]
5. NC(N)=NCCC[C@@H]1NC(=O)[C@@H]2CCCN2C1=O [compound 209, cyclo-arginyl-proline]

743
445
359
111
441

Batch lookup, Amount of active GLP-1 secreted (relative value to control group as 100), average value per entry.
1. NC(=O)CC1NC(=O)C2CCCN2C1=O (stereo not drawn) [compound 201, cyclo-asparaginyl-proline]
2. CSCC[C@@H]1NC(=O)[C@H](CCC(N)=O)NC1=O [compound 186, cyclo-glutaminyl-methionine]

1: 430; 2: 191
